# study_target: T1, NPR-A receptor (UniProt P16066 33-1061, limits assumed)
# T1 sequence (looked up): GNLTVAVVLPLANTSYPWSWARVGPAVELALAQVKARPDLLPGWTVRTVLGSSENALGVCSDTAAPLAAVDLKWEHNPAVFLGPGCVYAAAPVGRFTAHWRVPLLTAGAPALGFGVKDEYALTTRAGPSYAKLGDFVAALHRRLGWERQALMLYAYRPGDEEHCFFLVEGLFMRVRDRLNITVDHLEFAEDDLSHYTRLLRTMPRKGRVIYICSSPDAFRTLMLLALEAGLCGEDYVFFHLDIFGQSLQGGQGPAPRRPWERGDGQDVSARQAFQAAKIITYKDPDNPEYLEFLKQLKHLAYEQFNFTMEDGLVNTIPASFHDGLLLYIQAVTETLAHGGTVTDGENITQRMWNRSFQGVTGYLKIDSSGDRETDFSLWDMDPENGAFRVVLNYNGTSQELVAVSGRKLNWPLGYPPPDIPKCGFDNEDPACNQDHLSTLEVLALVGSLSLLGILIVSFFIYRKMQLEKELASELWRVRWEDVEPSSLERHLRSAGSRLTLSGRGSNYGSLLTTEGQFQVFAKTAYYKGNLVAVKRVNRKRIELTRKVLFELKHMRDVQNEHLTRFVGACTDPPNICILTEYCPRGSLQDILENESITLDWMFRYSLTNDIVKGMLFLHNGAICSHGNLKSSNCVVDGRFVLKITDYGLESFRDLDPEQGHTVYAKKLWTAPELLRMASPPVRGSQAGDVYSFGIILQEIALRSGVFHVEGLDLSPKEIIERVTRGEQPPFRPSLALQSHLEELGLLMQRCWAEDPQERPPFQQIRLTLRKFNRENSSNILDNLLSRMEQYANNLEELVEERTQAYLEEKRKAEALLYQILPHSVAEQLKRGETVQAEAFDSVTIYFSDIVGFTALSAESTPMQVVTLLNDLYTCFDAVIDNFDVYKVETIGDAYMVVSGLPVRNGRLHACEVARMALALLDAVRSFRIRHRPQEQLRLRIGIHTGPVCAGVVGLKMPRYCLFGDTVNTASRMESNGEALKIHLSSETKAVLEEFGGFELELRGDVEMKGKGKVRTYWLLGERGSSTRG
# measurement_notes: cell-based or functional assay
No end group written: not given here. *: point of attachment. diST = diST O-glycan, CC(=O)N[C@@H]1[C@@H](O[C@@H]2O[C@H](CO)[C@H](O)[C@H](O[C@]3(C(=O)O)C[C@H](O)[C@@H](NC(C)=O)[C@H]([C@H](O)[C@H](O)CO)O3)[C@H]2O)[C@@H](O)[C@@H](CO[C@]2(C(=O)O)C[C@H](O)[C@@H](NC(C)=O)[C@H]([C@H](O)[C@H](O)CO)O2)O[C@@H]1*; code T = T O-glycan (Galβ1-3GalNAc), CC(=O)N[C@@H]1[C@@H](O[C@@H]2O[C@H](CO)[C@H](O)[C@H](O)[C@H]2O)[C@@H](O)[C@@H](CO)O[C@@H]1*; ST = sialylated T O-glycan
The following binders are listed with their measured reduction in efficacy, cGMP generated values.

Previously resolved entries follow.
SLRRSSCFGGRMDRIGAQSGLGCNSFRY (not fully specified (residue 19); ends and bridges not checked) [ANP with one O-glycan (GalNAc/Tn) at residue 19] | ~20%
SLRRSSCFGGRMDRIGAQS(ST)GLGCNSFRY (ends and bridges not checked) [ANP with ST O-glycan at residue 19] | ~20%

Q. # query: reduction in efficacy, cGMP generated of entry SLRRSSCFGGRMDRIGAQS(code T)GLGCNSFRY (ends and bridges not checked) [ANP with T O-glycan at residue 19]
A. ~20%

Q. Reported reduction in efficacy, cGMP generated for SLRRSSCFGGRMDRIGAQS(diST)GLGCNSFRY (not fully specified (bridges); ends and bridges not checked) [ANP with diST O-glycan at residue 19] : what is it?
A. ~20%
